Quick list: IC50 per entry.
Biological target: ErbB2 with Exon 20 YVMA insertion (HER2-YVMA) (Homo sapiens (Human), UniProt P04626, INS775YVMA)
Sequence (P04626 other isoform, or with tags, fused parts or gaps ins YVMA behind 775): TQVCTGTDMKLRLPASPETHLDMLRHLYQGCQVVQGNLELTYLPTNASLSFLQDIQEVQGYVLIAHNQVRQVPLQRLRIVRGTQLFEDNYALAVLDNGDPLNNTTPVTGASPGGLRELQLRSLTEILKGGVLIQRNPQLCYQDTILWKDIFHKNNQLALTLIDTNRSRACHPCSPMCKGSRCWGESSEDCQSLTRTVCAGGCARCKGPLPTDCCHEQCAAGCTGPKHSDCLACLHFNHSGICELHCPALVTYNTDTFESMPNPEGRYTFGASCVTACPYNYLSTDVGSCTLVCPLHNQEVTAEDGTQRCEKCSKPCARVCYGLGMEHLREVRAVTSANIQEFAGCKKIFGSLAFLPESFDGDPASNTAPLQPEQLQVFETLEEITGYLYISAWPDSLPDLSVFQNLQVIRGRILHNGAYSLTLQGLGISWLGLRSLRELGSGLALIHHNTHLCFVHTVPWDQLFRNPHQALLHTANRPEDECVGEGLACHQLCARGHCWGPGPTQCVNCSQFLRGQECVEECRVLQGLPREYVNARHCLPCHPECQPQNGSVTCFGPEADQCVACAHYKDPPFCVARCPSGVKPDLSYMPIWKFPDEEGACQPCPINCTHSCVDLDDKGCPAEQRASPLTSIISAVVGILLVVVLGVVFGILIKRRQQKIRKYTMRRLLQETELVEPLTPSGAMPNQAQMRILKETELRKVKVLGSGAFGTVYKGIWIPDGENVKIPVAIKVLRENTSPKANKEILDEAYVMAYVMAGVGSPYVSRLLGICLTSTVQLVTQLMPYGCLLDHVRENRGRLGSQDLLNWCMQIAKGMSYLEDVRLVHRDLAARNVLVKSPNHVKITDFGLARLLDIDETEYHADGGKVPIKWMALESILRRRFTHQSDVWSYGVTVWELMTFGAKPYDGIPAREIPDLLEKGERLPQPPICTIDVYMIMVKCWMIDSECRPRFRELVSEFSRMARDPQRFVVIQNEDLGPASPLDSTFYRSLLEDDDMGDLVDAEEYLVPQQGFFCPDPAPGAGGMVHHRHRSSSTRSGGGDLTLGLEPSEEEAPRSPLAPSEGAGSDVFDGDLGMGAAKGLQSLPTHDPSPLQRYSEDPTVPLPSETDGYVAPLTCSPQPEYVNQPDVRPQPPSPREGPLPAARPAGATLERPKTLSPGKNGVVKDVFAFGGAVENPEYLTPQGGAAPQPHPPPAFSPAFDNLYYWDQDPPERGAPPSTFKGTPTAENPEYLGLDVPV
Test: Cellular phosphorylation assay, constitutive ErbB2 phosphorylation (Y1196) in engineered NIH 3T3 cells, Assay 4
The reply must contain the numeric value and, after it, the unit.

Worked examples, 3 molecules total:
molecule	IC50
Cc1cc(Nc2ncnc3cnc(N4CCCC5(COC5)C4)nc23)ccc1Oc1ccc2c(c1)ncn2C	56.2 nM
Cc1cc(Nc2ncnc3cnc(N4CCC[C@H]4C(F)F)nc23)ccc1Oc1ccc2c(c1)ncn2C	98.4 nM
Cc1cc(Nc2ncnc3cnc(N4CCCC45COC5)nc23)ccc1Oc1ccc2c(c1)ncn2C	15.7 nM

IC50 for Cc1cc(Nc2ncnc3cnc(N4CCCC(OC(F)F)C4)nc23)ccc1Oc1ccc2c(c1)ncn2C (racemic) ?
91.5 nM

What value of IC50 has been recorded for this entry: O=S1(=O)CC[C@@H]2CN(c3ncc4ncnc(Nc5ccc(Oc6ccn7ncnc7c6)c(Cl)c5)c4n3)C[C@@H]21
385 nM

Which IC50 is listed for Cc1c(Oc2ccn3ncnc3c2)ccc(Nc2ncnc3cnc(N(C)CC4(O)CCC4)nc23)c1F ?
1490 nM

Quick one: IC50 for Cc1cc(Nc2ncnc3cnc(N4CCC(C)S4(=O)=O)nc23)ccc1Oc1ccc2c(c1)ncn2C (stereo not shown) ?
4.1 nM

---

Molecular target: ErbB2 with Exon 20 YVMA insertion (HER2-YVMA) (Homo sapiens (Human), UniProt P04626, INS775YVMA)
Assay: Cellular phosphorylation assay, constitutive ErbB2 phosphorylation (Y1196) in engineered NIH 3T3 cells, Assay 4
In this section, each of the molecules is paired with its reported pIC50.
Expect pIC50 as a plain number equal to -log10 of the molar concentration.

Worked set:
cpd_smiles	pIC50
Cc1ncc(-c2ncc3ncnc(Nc4ccc(Oc5ccc6c(c5)ncn6C)c(C)c4)c3n2)o1	7.90
Cc1cc(Nc2ncnc3cnc(N4CC5CC(C5)C4)nc23)ccc1Oc1ccc2c(c1)ncn2C	6.53
Cc1cc(Nc2ncnc3cnc(N4CCN5CCOC[C@@H]5C4)nc23)ccc1Oc1ccc2c(c1)ncn2C	7.85
Cc1c(Oc2ccc3c(c2)ncn3C)ccc(Nc2ncnc3cnc(N4C[C@H]5C[C@@H]4CO5)nc23)c1F	7.30

Give its pIC50 value. Item: Cc1cc(Nc2ncnc3cnc(N(C)CC4(O)CC4)nc23)ccc1Oc1ccn2ncnc2c1
6.74

Look at this molecule and give its reported pIC50. Cc1cc(Nc2ncnc3cnc(-c4cnsc4)nc23)ccc1Oc1ccc2c(c1)ncn2C
7.62

Fill in: pIC50 of Cc1cc(Nc2ncnc3cnc(NC4=NC(C)(C)CO4)nc23)ccc1Oc1ccc2c(c1)ncn2C is ___
7.87

Data request, read-out pIC50, for CON1CCN(c2ncc3ncnc(Nc4ccc(Oc5ccn6ncnc6c5)c(C)c4)c3n2)CC1
7.02

---

Biological target: ErbB2 insYVMA (HER2-YVMA, SEQ ID NO: 2) (Homo sapiens, UniProt P04626, INS775YVMA/P1170A)
Sequence (P04626 with tags, fused parts or gaps INS775YVMA/P1170A limits assumed): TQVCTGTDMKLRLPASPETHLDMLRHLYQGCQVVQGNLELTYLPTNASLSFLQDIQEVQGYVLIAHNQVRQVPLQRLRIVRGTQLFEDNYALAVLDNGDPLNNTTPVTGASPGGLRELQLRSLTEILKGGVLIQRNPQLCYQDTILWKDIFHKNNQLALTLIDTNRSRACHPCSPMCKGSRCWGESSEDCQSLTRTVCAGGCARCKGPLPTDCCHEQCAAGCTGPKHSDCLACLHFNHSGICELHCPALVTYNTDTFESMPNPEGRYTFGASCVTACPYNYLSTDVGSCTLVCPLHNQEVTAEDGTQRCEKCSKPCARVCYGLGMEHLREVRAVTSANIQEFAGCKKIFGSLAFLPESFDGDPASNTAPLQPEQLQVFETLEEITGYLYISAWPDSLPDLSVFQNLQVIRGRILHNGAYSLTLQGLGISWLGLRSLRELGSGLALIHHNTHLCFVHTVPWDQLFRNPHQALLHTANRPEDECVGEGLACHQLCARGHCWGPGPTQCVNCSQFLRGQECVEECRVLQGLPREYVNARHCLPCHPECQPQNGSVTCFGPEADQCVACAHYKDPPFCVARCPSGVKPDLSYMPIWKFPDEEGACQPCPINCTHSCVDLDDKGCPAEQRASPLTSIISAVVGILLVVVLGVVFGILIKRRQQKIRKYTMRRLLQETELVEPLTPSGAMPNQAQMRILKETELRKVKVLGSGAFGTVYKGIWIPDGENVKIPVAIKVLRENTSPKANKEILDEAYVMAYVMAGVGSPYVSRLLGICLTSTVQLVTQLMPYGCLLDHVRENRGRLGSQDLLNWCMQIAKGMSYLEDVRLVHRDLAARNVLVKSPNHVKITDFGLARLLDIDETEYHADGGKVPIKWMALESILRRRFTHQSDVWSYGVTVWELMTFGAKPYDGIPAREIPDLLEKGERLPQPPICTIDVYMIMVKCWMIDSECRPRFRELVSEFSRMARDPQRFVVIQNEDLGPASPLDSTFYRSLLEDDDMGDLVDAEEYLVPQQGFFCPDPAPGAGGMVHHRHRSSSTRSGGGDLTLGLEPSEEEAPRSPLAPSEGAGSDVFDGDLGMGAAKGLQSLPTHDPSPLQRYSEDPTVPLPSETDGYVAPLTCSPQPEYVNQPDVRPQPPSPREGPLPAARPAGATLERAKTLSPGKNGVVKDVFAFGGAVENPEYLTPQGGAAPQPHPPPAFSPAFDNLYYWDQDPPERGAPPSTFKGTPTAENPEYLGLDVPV
Assay: biochemical
Conditions: ErbB2 insYVMA enzyme assay; read-out: Assay 1 IC50
Listed next: entries and their corresponding pIC50.
Please treat pIC50 as minus the base-10 logarithm of the molar concentration.

cpd_smiles	observed_measurement
Cc1cc(Nc2ncnc3cnc(-c4cscn4)nc23)ccc1Oc1ccc2c(c1)ncn2C	7.13
Cc1cc(Nc2ncnc3cnc(N4CCC45COC5)nc23)ccc1Oc1cc(F)c2c(c1)ncn2C	7.48
Cc1cc(Nc2ncnc3cnc(NCC(F)F)nc23)ccc1Oc1ccc2c(c1)ncn2C	7.93

Let us examine a further case.
Entry under review: Cc1c(Oc2ccn3ncnc3c2)ccc(Nc2ncnc3cnc(N4CC[C@H]4C(C)(C)O)nc23)c1F . Reported pIC50?
6.73

---

Target: ErbB2 WT (Homo sapiens (Human), UniProt P04626)
Sequence (P04626 23-1255): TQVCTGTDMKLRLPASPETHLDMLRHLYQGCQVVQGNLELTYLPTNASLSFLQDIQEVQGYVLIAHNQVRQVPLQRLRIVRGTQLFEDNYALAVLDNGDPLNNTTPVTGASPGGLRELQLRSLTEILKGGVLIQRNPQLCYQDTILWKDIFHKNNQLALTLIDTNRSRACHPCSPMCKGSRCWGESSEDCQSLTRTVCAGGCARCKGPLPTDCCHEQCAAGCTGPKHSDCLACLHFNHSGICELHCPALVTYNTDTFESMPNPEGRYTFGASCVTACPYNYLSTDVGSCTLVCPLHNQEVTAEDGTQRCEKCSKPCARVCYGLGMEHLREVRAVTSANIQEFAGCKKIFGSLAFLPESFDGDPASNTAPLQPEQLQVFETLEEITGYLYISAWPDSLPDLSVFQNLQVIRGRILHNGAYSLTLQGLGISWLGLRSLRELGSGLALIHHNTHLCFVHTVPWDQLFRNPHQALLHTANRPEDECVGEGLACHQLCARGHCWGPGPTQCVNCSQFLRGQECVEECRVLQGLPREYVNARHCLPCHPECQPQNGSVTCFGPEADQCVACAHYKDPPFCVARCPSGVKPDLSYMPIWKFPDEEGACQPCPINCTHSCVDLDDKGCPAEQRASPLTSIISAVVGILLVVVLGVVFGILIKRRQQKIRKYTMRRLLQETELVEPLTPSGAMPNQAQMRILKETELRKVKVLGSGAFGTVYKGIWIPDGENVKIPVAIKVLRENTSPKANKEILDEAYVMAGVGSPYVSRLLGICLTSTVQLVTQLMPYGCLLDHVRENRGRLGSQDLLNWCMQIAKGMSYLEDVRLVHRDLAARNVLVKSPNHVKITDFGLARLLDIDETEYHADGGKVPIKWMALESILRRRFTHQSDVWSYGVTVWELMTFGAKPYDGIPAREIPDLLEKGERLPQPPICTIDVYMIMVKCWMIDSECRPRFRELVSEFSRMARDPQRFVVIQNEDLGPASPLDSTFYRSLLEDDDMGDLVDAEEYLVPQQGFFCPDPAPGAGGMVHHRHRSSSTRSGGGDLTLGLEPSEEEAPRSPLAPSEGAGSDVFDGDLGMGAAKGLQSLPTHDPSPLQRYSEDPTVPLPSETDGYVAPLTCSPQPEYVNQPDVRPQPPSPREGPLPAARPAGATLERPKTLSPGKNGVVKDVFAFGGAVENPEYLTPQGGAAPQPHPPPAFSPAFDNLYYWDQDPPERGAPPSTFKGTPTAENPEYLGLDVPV
Lab note: compare IC50 with 50 nM, writing satisfied if less and not satisfied if equal or more.

Answered cases to consult:
compound	class_name
Cc1c(Oc2ccc3c(c2)ncn3C)ccc(Nc2ncnc3cnc(N4CC[C@](C)(O)C4)nc23)c1F [Example 97]	satisfied
Cc1cc(Nc2ncnc3cnc(N4CC(C(C)(C)O)C4)nc23)ccc1Oc1ccc2c(c1)ncn2C [Example 118]	not satisfied
COC1CN(c2ncc3ncnc(Nc4ccc(Oc5ccc6c(c5)ncn6C)c(C)c4)c3n2)C1 [Example 43]	not satisfied
Cc1cc(Nc2ncnc3cnc(N4CC[C@@](C)(O)C4)nc23)c(F)cc1Oc1ccc2c(c1)ncn2C [Example 214]	satisfied
Clc1cc(Nc2ncnc3cnc(N4C[C@H]5C[C@@H]4CO5)nc23)ccc1Oc1ccn2ncnc2c1 [Example 418]	not satisfied
CO[C@H]1CN(c2ncc3ncnc(Nc4ccc(Oc5ccc6c(c5)ncn6C)c(C)c4)c3n2)C[C@H]1O [Example 197]	satisfied

Lab note: next compound to report on.
Does the reported IC50 of CON1CCN(c2ncc3ncnc(Nc4cc(C)c(Oc5ccc6c(c5)ncn6C)cc4F)c3n2)CC1 [Example 486] stay below 50 nM?
not satisfied

---

Biological target: ErbB2 insYVMA (HER2-YVMA, SEQ ID NO: 2) (Homo sapiens, UniProt P04626, INS775YVMA/P1170A)
Test: biochemical
Conditions: ErbB2 insYVMA enzyme assay; read-out: Assay 1 IC50
Listing: IC50 of selected compounds
Write the value in nM as a bare number.

Recorded results for 3 compounds are shown here.
cpd_smiles	experimental_system	IC50, nM
Cc1cc(Nc2ncnc3cnc(N4C5CCC4COC5)nc23)ccc1Oc1ccn2ncnc2c1	ErbB2 insYVMA (HER2-YVMA, SEQ ID NO: 2) (Homo sapiens, UniProt P04626, INS775YVMA/P1170A)	110
Cc1cc(Nc2ncnc3cnc(N4CCO[C@@H]5C[C@@H]54)nc23)ccc1Oc1ccc2c(c1)ncn2C	ErbB2 insYVMA (HER2-YVMA, SEQ ID NO: 2) (Homo sapiens, UniProt P04626, INS775YVMA/P1170A)	16.1
Clc1cc(Nc2ncnc3cnc(N4CCN5CCOC[C@H]5C4)nc23)ccc1Oc1ccn2ncnc2c1	ErbB2 insYVMA (HER2-YVMA, SEQ ID NO: 2) (Homo sapiens, UniProt P04626, INS775YVMA/P1170A)	8.6

--- query ---
Please state recorded IC50 (tested on ErbB2 insYVMA (HER2-YVMA, SEQ ID NO: 2) (Homo sapiens, UniProt P04626, INS775YVMA/P1170A)) of Cc1cc(Nc2ncnc3cnc(O[C@H]4C[C@@H](F)CN(C)C4)nc23)ccc1Oc1ccc2c(c1)ncn2C
65.9

---

Target: ErbB2 WT (Homo sapiens (Human))
property_name: pIC50
As a rule, pIC50 stands for the negative log10 of the concentration, concentration in M.

Please review the following examples before continuing.
compound	experimental_system	pIC50
CN(c1ncc2ncnc(Nc3ccc(Oc4ccn5ncnc5c4)c(Cl)c3)c2n1)[C@H]1CCCOC1	ErbB2 WT (Homo sapiens (Human))	7.59
Clc1cc(Nc2ncnc3cnc(N4C[C@@H]5C[C@H]4CO5)nc23)ccc1Oc1ccn2ncnc2c1	ErbB2 WT (Homo sapiens (Human))	7.79

Form entry - test system: ErbB2 WT (Homo sapiens (Human)); read-out: pIC50; compound: Cc1c(Oc2ccc3c(c2)ncn3C)ccc(Nc2ncnc3cnc(N4CC5CC4CO5)nc23)c1F (stereo not drawn)
7.32

GET /values?readout=pIC50&system=ErbB2 WT (Homo sapiens (Human))&item= Cc1cc(Nc2ncnc3cnc(O[C@@H]4CNC[C@@H]4F)nc23)ccc1Oc1ccc2c(c1)ncn2C [Example 283]
6.52

Request - read-out pIC50 | tested on ErbB2 WT (Homo sapiens (Human)) | compound Cc1cc(Nc2ncnc3cnc(N4C[C@H](O)C5(CC5)C4)nc23)ccc1Oc1ccc2c(c1)ncn2C
7.64

Kindly state the measured pIC50 obtained for Cc1cc(Nc2ncnc3cnc(N4CCC(F)(F)C4)nc23)ccc1Oc1ccc2c(c1)ncn2C with ErbB2 WT (Homo sapiens (Human)).
6.84

Recall the recorded pIC50 for Cc1cc(Nc2ncnc3cnc(O[C@H]4CN(C)CC[C@@H]4F)nc23)ccc1Oc1ccc2c(c1)ncn2C with ErbB2 WT (Homo sapiens (Human)) and state it.
6.85

Record lookup: for ErbB2 WT (Homo sapiens (Human)), what pIC50 belongs to Cc1cc(Nc2ncnc3cnc(N4C[C@H]5C[C@@H]4CO5)nc23)c(F)cc1Oc1ccc2c(c1)ncn2C ?
7.39

Enter reported pIC50 observed with ErbB2 WT (Homo sapiens (Human)) for Clc1cc(Nc2ncnc3cnc(N4C[C@H]5CC[C@@H]4CO5)nc23)ccc1Oc1ccn2ncnc2c1
7.91

What value of pIC50 on ErbB2 WT (Homo sapiens (Human)) does Cc1cc(Nc2ncnc3cnc(N4CCN(CC(F)(F)F)CC4)nc23)ccc1Oc1ccc2c(c1)ncn2C have?
6.14

Form field - read-out: pIC50; system: ErbB2 WT (Homo sapiens (Human)); submitted item: CN(c1ncc2ncnc(Nc3ccc(Oc4ccc5c(c4)ncn5C)c(Cl)c3)c2n1)[C@H]1CCOC1
7.03

Lab request: please report pIC50 under test system ErbB2 WT (Homo sapiens (Human)) for Cc1cc(Nc2ncnc3cnc(N4CCO[C@H](C)C4)nc23)ccc1Oc1ccc2c(c1)ncn2C
7.34

Entry Cc1cc(Nc2ncnc3cnc(N4CC5CCOC5C4)nc23)ccc1Oc1ccc2c(c1)ncn2C (stereo not drawn) , system ErbB2 WT (Homo sapiens (Human)): what pIC50 was measured?
7.38

Please state recorded pIC50 (tested on ErbB2 WT (Homo sapiens (Human))) of Cc1cc(Nc2ncnc3cnc(N4CCN(C)S4(=O)=O)nc23)ccc1Oc1ccc2c(c1)ncn2C
7.18

Any idea what pIC50 came out for Cc1cc(Nc2ncnc3cnc(N4CCC4)nc23)ccc1Oc1ccc2scnc2c1 [Example 44, 2,2,2-trifluoroacetate] on ErbB2 WT (Homo sapiens (Human))?
6.50

Fill in the recorded pIC50 for this compound, with ErbB2 WT (Homo sapiens (Human)) as test system: Cc1cc(Nc2ncnc3cnc(N(C)C[C@H]4COCCO4)nc23)ccc1Oc1ccc2c(c1)ncn2C
6.99

Recall the recorded pIC50 for Cc1cc(Nc2ncnc3cnc(N[C@@H](C)COC(F)(F)F)nc23)ccc1Oc1ccc2c(c1)ncn2C with ErbB2 WT (Homo sapiens (Human)) and state it.
6.06

For ErbB2 WT (Homo sapiens (Human)), provide pIC50 of Cc1cc(Nc2ncnc3cnc(N4CC5CC(C5)C4)nc23)ccc1Oc1ccc2c(c1)ncn2C please.
6.45

Please provide the recorded pIC50 for Cc1cc(Nc2ncnc3cnc(N4CCN(C5COC5)CC4)nc23)ccc1Oc1ccc2c(c1)ncn2C , tested on ErbB2 WT (Homo sapiens (Human)).
7.39

Each recorded value in this set is attributed to patent US11834453B2.
